These entries and their values trace back to ChEMBL document CHEMBL1156157.

assay: Metabolic stability in rat liver microsomes assessed as parent compound remaining after 30 mins; type: ADME, Microsome; settings: read-out: Stability
Measurement kind: remaining at 0.5 h (%)

- O=C(/C=C/c1cccc2c1N(Cc1ccc(Cl)cc1Cl)C(=O)C2)NS(=O)(=O)c1ccc(Cl)c(Cl)c1: 26.8
- O=C(/C=C/c1cccc2c1N(Cc1ccc3ccccc3c1)C(=O)C2)NS(=O)(=O)c1ccc(F)c(F)c1: 43
- O=C(/C=C/c1cccc2c1N(Cc1ccc(Cl)cc1Cl)C(=O)C2(F)F)NS(=O)(=O)c1ccc(Cl)c(Cl)c1: 70.4

I. O=C(/C=C/c1cccc2c1N(Cc1ccc(Cl)cc1Cl)C(=O)C2(F)F)NS(=O)(=O)c1ccc(F)c(F)c1
II. CC1C(=O)N(Cc2ccc3ccccc3c2)c2c(/C=C/C(=O)NS(=O)(=O)c3cc(F)c(F)cc3F)cccc21 (stereo unspecified)
stdin: Sorting by remaining at 0.5 h in descending order, would I or II appear first? Identify your pick by its label.
stdout: I
